- target.under.test: hClpP (Homo sapiens, UniProt Q16740)
- Sequence (Q16740 57-277): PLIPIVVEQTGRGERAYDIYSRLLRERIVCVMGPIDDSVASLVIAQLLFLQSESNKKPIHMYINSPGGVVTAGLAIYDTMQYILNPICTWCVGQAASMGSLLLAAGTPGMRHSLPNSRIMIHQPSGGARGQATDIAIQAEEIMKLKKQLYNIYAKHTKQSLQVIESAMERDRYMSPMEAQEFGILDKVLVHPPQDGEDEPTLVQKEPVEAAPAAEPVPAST
- protocol.details: activating ClpP hydrolysis of FITC-casein (fluorescence kinetic detection)
- settings: hClpP 1 μM, FITC-Casein 4 μM, 37° C.
pEC50: −log10 of the molar value.
measurement.kind: pEC50

| entry.smiles | target.under.test | pEC50 |
| --- | --- | --- |
| COc1ccc(Cn2c(=O)c3c(c4cccnc42)CCN(Cc2ccccc2)C3)cc1 | hClpP (Homo sapiens, UniProt Q16740) | > 6.00 |
| O=c1c2c(c3cccnc3n1Cc1ccccc1)CCN(Cc1ccc(F)cc1)C2 | hClpP (Homo sapiens, UniProt Q16740) | 5.00 to 6.00 |
| O=c1c2c(c3cccnc3n1Cc1ccc(C(F)(F)F)cc1)CCN(Cc1ccccc1)C2 | hClpP (Homo sapiens, UniProt Q16740) | > 6.00 |

Now consider the entry below.
[Q] I have this compound here, N#Cc1cccc(CN2CCc3c(c(=O)n(Cc4ccc(C(F)(F)F)cc4)c4ccnn34)C2)c1 , and I need its recorded pEC50.
[A] 5.00 to 6.00

###

We begin with a simple list: items and their reported pEC50.
- target.under.test: hClpP (Homo sapiens, UniProt Q16740)
- Construct: made in house
- protocol.details: activating ClpP hydrolysis of FITC-casein (fluorescence kinetic detection)
- Assay type: biochemical
- settings: hClpP 1 μM, FITC-Casein 4 μM, 37° C.
pEC50: −log10 of the molar value.

# count of solved cases: 3
| entry.smiles | measurement.kind | reported.value |
| --- | --- | --- |
| O=c1c2c(c3cccnc3n1Cc1ccccn1)CCN(Cc1ccccc1)C2 | pEC50 | 4.00 to 5.00 |
| O=c1c2c(c3cccnc3n1Cc1ccccc1)CCN(CC1CCCC1)C2 | pEC50 | 4.00 to 5.00 |
| CCc1ccc(Cn2c(=O)c3c(c4cccnc42)CCN(Cc2cccc(Cl)c2)C3)cc1 | pEC50 | > 6.00 |

Now consider the entry below.
[Q] I have this compound here, Cc1ccc(CN2CCc3c(c(=O)n(Cc4ccccc4)c4ncccc34)C2)cc1 , and I need its recorded pEC50.
[A] 5.00 to 6.00

###

- target.under.test: hClpP (Homo sapiens)
- protocol.details: activating ClpP hydrolysis of FITC-casein (fluorescence kinetic detection)
- settings: hClpP 1 μM, FITC-Casein 4 μM, 37° C.
measurement.kind: EC50

[Q] Which measured EC50 belongs to N#Cc1cccc(CN2CCc3c(c(=O)n(Cc4ccc(Cl)cc4)c4nccn34)C2)c1 , tested on hClpP (Homo sapiens)?
[A] < 1000 nM

[Q] Query O=c1c2c(c3cccnc3n1CC1CCCCC1)CCN(Cc1ccccc1)C2 next
[A] 10000 to 100000 nM

[Q] Query O=c1c2c(c3cccnc3n1Cc1ccncc1)CCN(Cc1ccccc1)C2 next
[A] 10000 to 100000 nM

[Q] Query O=c1c2c(n3ccnc3n1Cc1ccc(Cl)cc1)CCN(Cc1ccccc1)C2 next
[A] < 1000 nM

[Q] Query O=c1c2c(c3cccnc3n1Cc1ccc3c(c1)OCCO3)CCN(Cc1cccc(Cl)c1)C2 next
[A] 1000 to 10000 nM

###

- target.under.test: hClpP (Homo sapiens, UniProt Q16740)
- protocol.details: activating ClpP hydrolysis of FITC-casein (fluorescence kinetic detection)
- settings: hClpP 1 μM, FITC-Casein 4 μM, 37° C.
measurement.kind: EC50

# count of solved cases: 3
| entry.smiles | target.under.test | EC50 |
| --- | --- | --- |
| O=c1c2c(c3cccnc3n1CC1CC1)CCN(Cc1ccccc1)C2 | hClpP (Homo sapiens, UniProt Q16740) | 10 to 100 µM |
| COc1cccc(CN2CCc3c(c(=O)n(Cc4ccccc4)c4ncccc34)C2)c1 | hClpP (Homo sapiens, UniProt Q16740) | 1 to 10 µM |
| COc1ccc(Cn2c(=O)c3c(n4ccnc24)CCN(Cc2cccc(Cl)c2)C3)cc1 | hClpP (Homo sapiens, UniProt Q16740) | < 1 µM |

Now consider the entry below.
[Q] I have this compound here, N#Cc1cccc(CN2CCc3c(c(=O)n(Cc4ccc(F)cc4)c4nccn34)C2)c1 , and I need its recorded EC50.
[A] < 1 µM

###

We begin with a simple list: items and their reported EC50.
- target.under.test: hClpP (Homo sapiens)
- protocol.details: activating ClpP hydrolysis of FITC-casein (fluorescence kinetic detection)
- settings: hClpP 1 μM, FITC-Casein 4 μM, 37° C.

# count of solved cases: 2
| entry.smiles | reported.value |
| --- | --- |
| O=c1c2c(n3ccnc3n1Cc1ccc(F)cc1)CCN(Cc1cccc(F)c1)C2 | < 1000 nM |
| O=c1c2c(c3cccnc3n1Cc1ccccc1)CCN(Cc1ccccc1Cl)C2 | 1000 to 10000 nM |

Now consider the entry below.
[Q] Which measured EC50 belongs to CCc1ccccc1Cn1c(=O)c2c(c3cccnc31)CCN(Cc1ccccc1)C2 , tested on hClpP (Homo sapiens)?
[A] 1000 to 10000 nM

###

- target.under.test: hClpP (Homo sapiens)
- Construct: made in house
- protocol.details: activating ClpP hydrolysis of FITC-casein (fluorescence kinetic detection)
- Format: biochemical
- settings: hClpP 1 μM, FITC-Casein 4 μM, 37° C.
We begin with a simple list: items and their reported EC50.

| entry.smiles | measurement.kind | reported.value |
| --- | --- | --- |
| Cc1ccc(Cn2c(=O)c3c(c4cccnc42)CCN(Cc2cccc(C#N)c2)C3)cc1 | EC50 | < 1 µM |

[Q] Which measured EC50 belongs to Cc1cc(CN2CCc3c(c(=O)n(Cc4ccccc4)c4ncccc34)C2)n(C)n1 , tested on hClpP (Homo sapiens)?
[A] 10 to 100 µM

[Q] Query CCc1cccc(CN2CCc3c(c(=O)n(Cc4ccccc4)c4ncccc34)C2)c1 next
[A] 1 to 10 µM

[Q] Query N#Cc1cccc(CN2CCc3c(c(=O)n(Cc4ccccc4)c4ccnn34)C2)c1 next
[A] 1 to 10 µM

###

We begin with a simple list: items and their reported EC50.
- target.under.test: hClpP (Homo sapiens)
- protocol.details: activating ClpP hydrolysis of FITC-casein (fluorescence kinetic detection)
- settings: hClpP 1 μM, FITC-Casein 4 μM, 37° C.

# count of solved cases: 6
| entry.smiles | EC50 |
| --- | --- |
| CCc1ccc(Cn2c(=O)c3c(n4ccnc24)CCN(Cc2ccccc2)C3)cc1 | < 1 µM |
| O=c1c2c(n3cccc3n1Cc1ccc(C(F)(F)F)cc1)CCN(Cc1ccccc1)C2 | < 1 µM |
| O=c1c2c(c3cccnc3n1Cc1ccc(Br)cc1)CCN(Cc1cccc(Cl)c1)C2 | < 1 µM |
| CCc1ccc(Cn2c(=O)c3c(n4ccnc24)CCN(Cc2cccc(C#N)c2)C3)cc1 | < 1 µM |
| O=c1c2c(c3cccnc3n1Cc1ccccc1)CCN(Cc1ccncc1)C2 | 10 to 100 µM |
| Cc1ccc(Cn2c(=O)c3c(n4ccnc24)CCN(Cc2cccc(Cl)c2)C3)cc1 | < 1 µM |

[Q] I have this compound here, COc1ccccc1CN1CCc2c(c(=O)n(Cc3ccccc3)c3ncccc23)C1 , and I need its recorded EC50.
[A] 1 to 10 µM

[Q] Query O=c1c2c(c3cccnc3n1Cc1ccccc1)CCN(CC1CC1)C2 next
[A] 10 to 100 µM

[Q] Query Cc1cccc(CN2CCc3c(c(=O)n(Cc4ccccc4)c4ccnn34)C2)c1 next
[A] 1 to 10 µM

[Q] Query Cn1ccnc1CN1CCc2c(c(=O)n(Cc3ccccc3)c3ncccc23)C1 next
[A] 10 to 100 µM

[Q] Query O=c1c2c(c3cccnc3n1Cc1ccc(Br)cc1)CCN(Cc1cccc(Br)c1)C2 next
[A] < 1 µM

[Q] Query Cc1ccc(Cn2c(=O)c3c(n4ccnc24)CCN(Cc2ccccc2)C3)cc1 next
[A] < 1 µM

[Q] Query Cc1cc(Cn2c(=O)c3c(c4cccnc42)CCN(Cc2ccccc2)C3)n(C)n1 next
[A] 10 to 100 µM

[Q] Query O=c1c2c(c3sccc3n1Cc1ccc(C(F)(F)F)cc1)CCN(Cc1ccccc1)C2 next
[A] < 1 µM

[Q] Query O=c1c2c(c3cccnc3n1Cc1ccccc1)CCN(Cc1cccc(F)c1)C2 next
[A] < 1 µM

[Q] Query O=c1c2c(n3cncc3n1Cc1ccc(Cl)cc1)CCN(Cc1cccc(Cl)c1)C2 next
[A] 1 to 10 µM

[Q] Query O=c1c2c(c3cccnc3n1CC1CCCC1)CCN(Cc1ccccc1)C2 next
[A] 10 to 100 µM

[Q] Query Cc1ccc(Cn2c(=O)c3c(c4cccnc42)CCN(Cc2ccccc2)C3)cc1 next
[A] < 1 µM

[Q] Query Cc1cccc(CN2CCc3c(c(=O)n(Cc4ccccc4)c4nccn34)C2)c1 next
[A] < 1 µM

[Q] Query Cn1ccnc1Cn1c(=O)c2c(c3cccnc31)CCN(Cc1ccccc1)C2 next
[A] 10 to 100 µM

[Q] Query N#Cc1cccc(CN2CCc3c(c(=O)n(Cc4ccc5c(c4)OCO5)c4ncccc34)C2)c1 next
[A] 1 to 10 µM

[Q] Query COc1ccc(Cn2c(=O)c3c(n4ccnc24)CCN(Cc2cccc(C#N)c2)C3)cc1 next
[A] < 1 µM

[Q] Query O=c1c2c(c3ccccc3n1Cc1ccc(C(F)(F)F)cc1)CCN(Cc1ccccc1)C2 next
[A] < 1 µM

[Q] Query O=c1c2c(c3cccnc3n1Cc1ccc(F)cc1)CCN(Cc1cccc(Cl)c1)C2 next
[A] < 1 µM

[Q] Query Cn1cnc(Cn2c(=O)c3c(c4cccnc42)CCN(Cc2ccccc2)C3)c1 next
[A] 10 to 100 µM

[Q] Query N#Cc1cccc(CN2CCc3c(c(=O)n(Cc4ccc([N+](=O)[O-])cc4)c4ncccc34)C2)c1 next
[A] 1 to 10 µM

[Q] Query CN(C)c1ccc(Cn2c(=O)c3c(c4cccnc42)CCN(Cc2cccc(C#N)c2)C3)cc1 next
[A] 1 to 10 µM

[Q] Query Cc1noc(C)c1Cn1c(=O)c2c(c3cccnc31)CCN(Cc1ccccc1)C2 next
[A] 10 to 100 µM

[Q] Query O=c1c2c(c3cscc3n1Cc1ccc(C(F)(F)F)cc1)CCN(Cc1ccccc1)C2 next
[A] < 1 µM
